- System: SN12C renal
- Assay overview: NCI tumour cell line growth inhibition, 48 h
Outcome measure: TGI

Qu. Need TGI, item O=C1C=CC2(CCC23C=CC(=O)O3)O1 (centres undefined)
Ans. > 100 µM

Qu. Need TGI, item Cc1nc2ccncc2[nH]1
Ans. > 100 µM

Qu. Need TGI, item Cc1cccc2c1nc1n2C(=O)c2ccccc2-1
Ans. > 100 µM

Qu. Need TGI, item N=C(N)n1cc(/C=N/N=C(N)N)cn1
Ans. > 100 µM

Qu. Need TGI, item CCCCCCCCCCCCOCC(COP(=O)(O)OCCN=[N+]=[N-])OC(=O)CCCCCCCCCCC (centres undefined)
Ans. > 100 µM

Qu. Need TGI, item CC(C)C(NCc1c2ccccc2[n+](C)c2ccccc12)C(=O)O (centres undefined)
Ans. 18 µM

Qu. Need TGI, item CO[C@H]1C(=O)[C@]2(C)[C@@H](OC)C[C@H]3OC[C@@]3(OC(C)=O)[C@H]2[C@H](OC(=O)c2ccccc2)[C@]2(O)C[C@H](OC(=O)[C@H](O)[C@@H](NC(=O)OC(C)(C)C)c3ccccc3)C(C)=C1C2(C)C
Ans. > 100 µM

Qu. Need TGI, item C/C(CCN(C)C)=N/O
Ans. 27.3 µM

Qu. Need TGI, item O=C(O)[C@H]1NC[C@H]2C(Br)=NO[C@@H]12
Ans. > 100 µM

Qu. Need TGI, item COc1cc2c(c3c1c(=O)c1ccccc1n3C)C=C([N+](=O)[O-])C(C)(C)O2
Ans. > 100 µM

Qu. Need TGI, item O=c1[nH]c2c(Nc3c4ccccc4nc4ccccc34)c([N+](=O)[O-])c(Nc3c4ccccc4nc4ccccc34)c([N+](=O)[O-])c2[nH]1
Ans. 8.8 µM

Qu. Need TGI, item O=C1Nc2ccc(-c3cccnc3)cc2/C1=C/c1cc(Br)c(O)c(Br)c1
Ans. > 25 µM

Qu. Need TGI, item CN1CCCc2nc3ccccc3n2C1
Ans. > 100 µM

Qu. Need TGI, item O=C(OCCN=c1c2ccccc2ccc2ccccc12)c1cc([N+](=O)[O-])cc([N+](=O)[O-])c1
Ans. > 100 µM

Qu. Need TGI, item COc1cc([C@@H]2c3cc4c(cc3[C@H](SC(=N)N)[C@H]3COC(=O)[C@H]23)OCO4)cc(OC)c1OC
Ans. > 100 µM

Qu. Need TGI, item CC(=O)OC12c3ccccc3C(c3ccccc31)C1C(=O)N(N=C(C)C)C(=O)C12 (centres undefined)
Ans. > 100 µM

Qu. Need TGI, item Cc1ccc(-n2nc(C(OC3OC(CO)C(O)C(O)C3O)C(O)CO)c3nc4cc(C)c(C)cc4nc32)cc1 (centres undefined)
Ans. > 100 µM

Qu. Need TGI, item O=C(CI)NC(=O)NC(=O)NCc1ccccc1
Ans. 14.6 µM

Qu. Need TGI, item Cc1nc2sccn2c1C(=O)NNC(N)=S
Ans. > 100 µM

Qu. Need TGI, item O=c1[nH]c(=S)[nH]c(O)c1/C=C1\C=Nc2ccccc21
Ans. 59.4 µM

Qu. Need TGI, item O=C(Nc1ccc(-n2cc(-c3ccncc3)c(-c3ccc(O)c(Cl)c3)n2)cc1)Nc1cc(C(F)(F)F)cc(C(F)(F)F)c1
Ans. 16.3 µM

Qu. Need TGI, item O=C(Nc1ccc(-n2cc(-c3ccncc3)c(-c3ccc(Cl)c(O)c3)n2)cc1)c1cc(C(F)(F)F)cc(C(F)(F)F)c1
Ans. 89.9 µM

Qu. Need TGI, item CN(C)CCNC(=O)Nc1ccc(N(C)c2ccnc(Nc3ccc(CS(C)(=O)=O)cc3)n2)cc1
Ans. > 25 µM

Qu. Need TGI, item CC1CCCP(=O)(c2ccccc2)CCC1 (centres undefined)
Ans. > 100 µM

Qu. Need TGI, item CCc1ccc(Oc2c(-c3ccc(OCc4ccc(Cl)cc4)cc3O)nn(C)c2C(F)(F)F)cc1
Ans. 2.48 µM

Qu. Need TGI, item Nc1nc(-c2ccccc2)c(CC(=O)O)s1
Ans. > 100 µM

Qu. Need TGI, item O=c1[nH]ncc2[nH]c3c(c12)CCc1ccccc1-3
Ans. > 100 µM

Qu. Need TGI, item CCOC(=O)C(Cc1ccc(N=NN(C)C)cc1)NC(=O)CC1c2ccccc2-c2ccccc21 (centres undefined)
Ans. > 100 µM

Qu. Need TGI, item CCN1C(=O)N(CC)C2C1NC(=S)N2/N=C/C=C/c1ccccc1 (centres undefined)
Ans. > 100 µM

Qu. Need TGI, item CC(=O)c1c(-c2ccc(Cl)cc2)c(C#N)c(=S)n(C2OC(CO)C(O)C(O)C2O)c1C (centres undefined)
Ans. > 100 µM

Qu. Need TGI, item Cc1ccc(C(=O)Nc2ccc(Oc3cc4cnn(C)c4cc3-c3cn[nH]c3)c(F)c2)c(=O)n1-c1ccc(F)cc1
Ans. > 100 µM

Qu. Need TGI, item O=C(O)CCCc1ccc2c(c1)C(C(=O)O)CC2 (centres undefined)
Ans. > 100 µM

Qu. Need TGI, item CC(=O)C1(C(=O)C(=[N+]=[N-])S(=O)(=O)c2ccccc2)CC1
Ans. > 100 µM

Qu. Need TGI, item COc1cc2c(cc1O)C(Cc1ccc(OCc3ccccc3)c(OCc3ccccc3)c1)N(C(=O)NCCc1ccccc1)CC2 (centres undefined)
Ans. > 100 µM

Qu. Need TGI, item CCCC(O)[C@@]1(CC)CC(C)C(O)(C2(C)C[C@H](C)[C@@H](C(CC)C(=O)C(C)[C@@H](O)[C@H](C)C3OC(O)(C(CC)C(=O)O)[C@@H](C)C(O)C3CC)O2)O1 (some centres undefined)
Ans. 2.39 µM

Qu. Need TGI, item Nc1c(C(=O)O)c2ccc([N+](=O)[O-])cc2c(=O)n1-c1nc2ccccc2s1
Ans. > 100 µM

Qu. Need TGI, item Cc1cc(NC(=O)NC(=O)c2ccccc2NC(=O)CN(C)C)ccc1Oc1ncc(Br)cn1
Ans. > 100 µM

Qu. Need TGI, item CC(=O)CCC1(C(=O)OCC(C)C)CCCC1=O (centres undefined)
Ans. > 100 µM

Qu. Need TGI, item O=C1C=CC2(O)OCC3C=C4O[C@@H]5OC6(CCCCC6)O[C@@H]5C4[C@@H]2[C@@H]13 (some centres undefined)
Ans. > 100 µM

###

- Tested on: M14 melanoma
- Assay overview: NCI tumour cell line growth inhibition, 48 h
Consider the following compounds; for each one, report its TGI.

Qu. Need TGI, item COC(=O)Nc1cc(OCCCOC(C)=O)c2[nH]c(C(=O)OC)cc2c1C[C@H](O)CO
Ans. > 100 µM

Qu. Need TGI, item CCc1c(O)nc(Nc2nc3ccccc3[nH]2)[nH]c1=O
Ans. > 100 µM

Qu. Need TGI, item C/C(=N\NC(=S)N1CCC1)c1ccccn1
Ans. 1.84 µM

Qu. Need TGI, item Cc1ccc2ccc3c4ccccc4ccc3c2c1
Ans. > 100 µM

Qu. Need TGI, item CC1CC(c2ccccc2)=Nc2ccccc2S1 (stereo unspecified)
Ans. > 100 µM

Qu. Need TGI, item Cc1nc(C(=Nc2ccc(Br)cc2)Nn2cnnc2)no1
Ans. > 100 µM

Qu. Need TGI, item CC1(C)C(=O)/C(=C/c2ccccc2)C(C)(C)C1(C)C
Ans. > 100 µM

Qu. Need TGI, item O=C(/C=C\c1ccccc1)Oc1ccc(/C=C2\CCC/C(=C\c3ccc(OC(=O)/C=C\c4ccccc4)cc3)C2=O)cc1
Ans. > 100 µM

Qu. Need TGI, item N#CN1CC[C@H](C(=O)Nc2ncc(-c3ccccc3)s2)C1
Ans. 2.22 µM

Qu. Need TGI, item COc1c(OC2OC(CO)C(O)C(O)C2O)cc2c(c1OC)-c1ccc(OC)c(=O)cc1C(NC(C)=O)CC2 (stereo unspecified)
Ans. > 100 µM

Qu. Need TGI, item COc1cccc(-c2cc(=O)c3cc(N4CCN(C)CC4)ccc3[nH]2)c1
Ans. > 100 µM

Qu. Need TGI, item COc1ccc2oc(=O)c(-c3cc4c(c(C)n3)c(=O)oc3ccc(OC)cc34)cc2c1
Ans. > 100 µM

Qu. Need TGI, item Cc1nnc(SCc2nc(C#N)c(C#N)nc2CSc2nnc(C)s2)s1
Ans. 37.6 µM

Qu. Need TGI, item CC1=NC(=N)N=C(C)C1N=Nc1ccc2nc(C)[nH]c2c1 (stereo unspecified)
Ans. > 100 µM

Qu. Need TGI, item O=C1C=CC2(CCC23C=CC(=O)O3)O1 (stereo unspecified)
Ans. > 100 µM

Qu. Need TGI, item CC(=O)CCC1(C(=O)OCC(C)C)CCCC1=O (stereo unspecified)
Ans. > 100 µM

Qu. Need TGI, item Clc1[nH]nc2ccccc12
Ans. > 100 µM

Qu. Need TGI, item CCOC(=O)[C@@H](C)C[C@H](Cc1ccccc1)NC(=O)c1csc([C@@H](C[C@H](C(C)C)N(C)C(=O)CNC(=O)[C@H]2CCCCN2C)OC(C)=O)n1
Ans. 7.31 µM

Qu. Need TGI, item CCCCCCCCCC1CC(=O)OC23CCCC(=O)C12O3 (stereo unspecified)
Ans. > 100 µM

Qu. Need TGI, item OCCNc1nc2ccccc2c2[nH]c3ccccc3c12
Ans. 2.03 µM

Qu. Need TGI, item NC(=O)c1nc(-c2c(F)cccc2Cl)oc1Nc1ccc(C(=O)N2CCOCC2)cc1
Ans. > 100 µM

Qu. Need TGI, item O=S(Nc1ccccc1)c1ccc(Cl)cc1 (stereo unspecified)
Ans. > 100 µM

Qu. Need TGI, item CN1CCCc2nc3ccccc3n2C1
Ans. > 100 µM

Qu. Need TGI, item Cc1ccc(-n2nc(C(OC3OC(CO)C(O)C(O)C3O)C(O)CO)c3nc4cc(C)c(C)cc4nc32)cc1 (stereo unspecified)
Ans. > 100 µM

Qu. Need TGI, item O=C1c2cccc3c(N4CCOCC4)ccc(c23)C(=O)N1CCN1CCN(CCCCCN2CCN(CCN3C(=O)c4cccc5c(N6CCOCC6)ccc(c45)C3=O)CC2)CC1
Ans. > 100 µM

Qu. Need TGI, item O=[N+]([O-])/C=C/c1cc(Cl)c(/C=C/[N+](=O)[O-])cc1Cl
Ans. 4.37 µM
